Measured values drawn from ChEMBL document CHEMBL3525906 for this set.

Assay: Drug metabolism in human hepatocytes assessed as 3'-hydroxy repaglinide formation by LC-MS/MS method
Type: ADME, cell-based, Hepatocyte
observable: Km (µM)
Response body: numeric value in µM, unit text excluded.

Entry under review: CCOc1cc(CC(=O)N[C@@H](CC(C)C)c2ccccc2N2CCCCC2)ccc1C(=O)O [REPAGLINIDE] . Reported Km? 13

###

Test: Half life in type 2 diabetes patient
Type: ADME, organism-based
Settings: human, in vivo
observable: half-life (h)
Form entry: value (h) — number only.

Using the record for CCOc1cc(CC(=O)N[C@@H](CC(C)C)c2ccccc2N2CCCCC2)ccc1C(=O)O [REPAGLINIDE] , report its half-life. 1
